For each of the variants below, state its yeast fitness.
B1: tRNA (parent)
chain: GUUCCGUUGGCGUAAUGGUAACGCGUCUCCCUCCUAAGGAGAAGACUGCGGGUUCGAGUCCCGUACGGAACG

Variants of: B1
Experiment: yeast fitness relative to wild type (ratio to wild type); higher = fitter; tRNA-Arg(CCU), competitive growth, 37 C, YPD
This sample holds only a part of the variants without activity.
One number for each entry.

Recorded yeast fitness, per entry:
INSERT INTO measurements (variant_code, value_measured) VALUES
  ('C4U C30A U59C A69C', 0.568),
  ('U2C C49U', 0.808),
  ('C5A C61G', 0.609),
  ('C11A C22G C29U U32C', 0.706),
  ('A15U C33G G50U', 0.527);

Quick one: give me yeast fitness for each item below, same order please.
1. U2G C24G G52C C66U
2. C11U C60U C62G
3. A14G U32G
4. G12C A65G
5. C55G C62G
6. G10A C46G A65C
7. G12A G44C C46G

RESULT:
[0.807, 0.588, 0.597, 0.783, 0.602, 0.597, 0.61]
